- Tested on: Plasmodium falciparum
- ASSAY_INFO: Primary screen in NF54 nanoGlo assay, in single point, at 2uM, 72h
- Format: functional, Erythrocyte
- RECORDED_CONDITIONS: timepoint 72 hour
The campaign covered roughly 150,000 compounds. About 540 (0.36%) showed an effect of 50% or more. The sample as a whole holds a higher share of strong results than the screen did.
RESULT_TYPE: Z score
Reply with the value as a number alone.

>>> quantitative_readout("Cc1nn(-c2ccc(Br)cc2)c(NC(=O)N(C)[C@@H](C)c2ccccc2F)c1C")
-0.23

[ask] Can you look up Z score on Plasmodium falciparum for `N#Cc1nccnc1N[C@H]1CCCN(CC(F)(F)F)C1` ?
[reply] 1.83

[ask] What measured Z score is associated with `CC1=CN(c2ccc(Br)cc2)C(=O)N(c2ccccc2)N=C1C` on Plasmodium falciparum?
[reply] 5.24

[ask] Field: Z score (Plasmodium falciparum). Entry: `CC1(C2CC2)CCN(C(=O)c2csnn2)CC1`
[reply] -0.37

[ask] Report Z score for `CCOc1ccc2nc(CN(Cc3cnn(C)c3)C3CC3)ccc2c1` tested on Plasmodium falciparum.
[reply] 1.15

[ask] Form field - read-out: Z score; system: Plasmodium falciparum; submitted item: `CN(C)CCN(Cc1ccsc1)C(=O)c1cc2cc(F)ccc2[nH]1`
[reply] 0.68

[ask] Plasmodium falciparum / Z score / `COc1ccccc1N(Cc1ccccc1)C1=NC(=[N+](Cc2ccccc2)c2ccccc2OC)c2ccccc21` : value?
[reply] -6.15

[ask] Give recorded Z score with Plasmodium falciparum for the following molecule: `O=C(CCC(=O)c1ccc2c(c1)OCCCO2)NCc1ccccc1`
[reply] 1.26

[ask] What Z score appears in the records for this molecule with Plasmodium falciparum? `CCc1c(C(=O)N2CCC(c3ccnn3CCO)CC2)cnn1-c1cccc(Cl)c1`
[reply] 0.24

[ask] Kindly state the measured Z score obtained for `Cc1cc(C)nc(O[C@H]2CCCN(C(=O)c3cccn(C)c3=O)C2)n1` with Plasmodium falciparum.
[reply] 0.22

[ask] Record lookup: for Plasmodium falciparum, what Z score belongs to `CNC(=O)c1cc(S(=O)(=O)N2CC=CC2)cn1C` ?
[reply] 0.78

[ask] Enter reported Z score observed with Plasmodium falciparum for `CN(C)c1ccccc1NC(=O)N[C@H]1CCS(=O)(=O)C1`
[reply] 1.66

###

- System: Plasmodium falciparum
- ASSAY_INFO: Primary screen in NF54 nanoGlo assay, in single point, at 2uM, 72h
- Format: functional, Erythrocyte
- RECORDED_CONDITIONS: timepoint 72 hour
The whole screen tested about 150,000 compounds, of which about 540 (0.36%) showed an effect of 50% or more. This excerpt belongs to a sample that is enriched for strong results.
RESULT_TYPE: % Inhibition
Number plus unit, in that order.

>>> result("CNc1nc(NCc2ccccc2)nc2ccccc12")
"81%"
>>> result("Cc1nc(C(=O)NC[C@@]23CCC[C@@H]2OCC3)c(-c2ccccc2)o1")
"0%"
>>> result("Oc1cc(C(F)(F)F)c2cc3c(cc2n1)OCO3")
"30%"

[ask] // query % Inhibition value for entry `Cc1cnc(NC(=O)c2nc(C)oc2-c2ccccc2)[nH]1`
[reply] -10%

###

% Inhibition overview
- Test system: Plasmodium falciparum
- ASSAY_INFO: Primary screen in NF54 nanoGlo assay, in single point, at 2uM, 72h
- Type: functional, Erythrocyte
- RECORDED_CONDITIONS: timepoint 72 hour
Screen size: about 150,000 compounds; about 540 (0.36%) showed an effect of 50% or more. Only a selection was taken, and strong results are over-represented in it overall.
Supply the numeric figure in %, leaving out any unit text.

>>> quantitative_readout("CCn1cc(-c2nc(-c3ccccc3)no2)c(=O)c2cc(F)c(N3CCCCC3)cc21")
-9
>>> quantitative_readout("COc1cccc(C(=O)N2CCN(c3cccnc3)C(=O)C2)c1OC")
9
>>> quantitative_readout("CCn1cc(-c2nc(-c3ccccc3C)no2)c(=O)c2cc(F)c(N3CCOCC3)cc21")
40

Consider the record given below.
[ask] Given `CCn1cc(C(=O)O)c(=O)c2cc(F)c(N3CCN(S(=O)(=O)c4ccccc4)CC3)cc21` , state its recorded % Inhibition.
[reply] 34

###

- System: Plasmodium falciparum
- ASSAY_INFO: Primary screen in NF54 nanoGlo assay, in single point, at 2uM, 72h
- Type: functional, Erythrocyte
- RECORDED_CONDITIONS: timepoint 72 hour
Hit rate of the full screen: of about 150,000 compounds, about 540 (0.36%) showed an effect of 50% or more. The sample as a whole holds a higher share of strong results than the screen did.
RESULT_TYPE: % Inhibition (%)
Reply with just the number (in %).

[ask] Request - read-out % Inhibition | tested on Plasmodium falciparum | compound `O=C(COc1ccc(Cl)cc1)N1CC[C@H](Oc2ccc3ccccc3n2)C1`
[reply] -18

###

- Test system: Plasmodium falciparum
- ASSAY_INFO: Primary screen in NF54 nanoGlo assay, in single point, at 2uM, 72h
- Assay type: functional, Erythrocyte
- RECORDED_CONDITIONS: timepoint 72 hour
Hit rate of the full screen: of about 150,000 compounds, about 540 (0.36%) showed an effect of 50% or more. The sample holds strong results, similar compounds and a random draw of the others, so the mix is not that of the screen.
RESULT_TYPE: % Inhibition (%)
The response must be a number in % with no trailing unit.

Consider the worked cases shown below.
>>> quantitative_readout("Cc1ccc(C(=O)Nc2cc(C(=O)N3CCCCC3C)cc(C(=O)N3CCCCC3C)c2)cc1 (stereo not drawn)")
6
>>> quantitative_readout("COc1ccc(OC)c([C@@H]2CCCN2c2nnc(-c3ccccn3)s2)c1")
-13
>>> quantitative_readout("O=C(N[C@H]1CCc2ncccc2C1)c1cccc(B(O)O)c1")
-4

[ask] May I ask what % Inhibition has been recorded for `Cc1ccc(C(=O)Nc2ccc(N3CCCN(C(=O)C4CCCC4)CC3)c(C(=O)N3CCCCC3)c2)cc1` ?
[reply] -4

###

Measured Z score, listed per entry.
- Tested on: Plasmodium falciparum
- ASSAY_INFO: Primary screen in NF54 nanoGlo assay, in single point, at 2uM, 72h
- Type: functional, Erythrocyte
- RECORDED_CONDITIONS: timepoint 72 hour
Screen size: about 150,000 compounds; about 540 (0.36%) showed an effect of 50% or more. Shown is part of a subset that was picked to be rich in strong results.

>>> result("CCCCN(C)c1cc([C@H]2C[C@@H](N)C2)nc(N)n1")
0.38

[ask] Return Z score measured with Plasmodium falciparum given this compound: `CC[n+]1c(/C=C/N(C)c2ccccc2)oc2ccc(-c3ccccc3)cc21`
[reply] -9.92

[ask] Any idea what Z score came out for `CN(Cc1ccc(-c2ccccc2)cc1)c1cc([C@H]2C[C@@H](N)C2)nc(N)n1` on Plasmodium falciparum?
[reply] -8.85

###

- Test system: Plasmodium falciparum
- ASSAY_INFO: Primary screen in NF54 nanoGlo assay, in single point, at 2uM, 72h
- Format: functional, Erythrocyte
- RECORDED_CONDITIONS: timepoint 72 hour
Out of some 150,000 compounds screened, about 540 (0.36%) showed an effect of 50% or more. The sample as a whole holds a higher share of strong results than the screen did.
RESULT_TYPE: % Inhibition (%)
Write down the numeric answer in % and omit the unit.

Answered cases to consult:
>>> quantitative_readout("O=C(Nc1ccc(Cl)cc1)N1Cc2nc[nH]c2C[C@H]1c1nc(-c2ccc3ccccc3c2)no1")
19
>>> quantitative_readout("CCc1noc(Cc2c(C)nn(-c3ccccc3)c2C)n1")
-5
>>> quantitative_readout("C[C@@]1(C(=O)NC2CCCCCCC2)Cn2c(ccc2-c2ccccc2)C(=O)N1Cc1ccco1")
7

[ask] If you can, please state the reported % Inhibition value of `COc1cccc(-c2nc(C)c(C(=O)NCc3nnc4ccccn34)s2)c1` .
[reply] -3

[ask] Using the record for `Cc1ccc(N2CCOCC2)c(NC(=O)C2CCCCC2)c1` , report its % Inhibition.
[reply] -1

###

- Test system: Plasmodium falciparum
- ASSAY_INFO: Primary screen in NF54 nanoGlo assay, in single point, at 2uM, 72h; a lower Z score goes with more inhibition
- Type: functional, Erythrocyte
- RECORDED_CONDITIONS: timepoint 72 hour
About 540 (0.36%) of roughly 150,000 compounds showed an effect of 50% or more. What follows is part of a selection rich in strong results, with near analogues and random picks from the rest.
Short version: Z score at least -0.08 is fulfilled, less is not fulfilled.

Use the examples below as a reference point.
>>> class_label("COCC(C)(C)c1noc(-c2ccc(C(F)(F)F)c(=O)[nH]2)n1")
"fulfilled"
>>> class_label("COc1ccc2c(/C=C/c3cc[n+](C)cc3)cn(Cc3ccccc3)c2c1")
"not fulfilled"
>>> class_label("COCCN(Cc1cc2ccc(Cl)cc2nc1N1CCC[C@H](CO)C1)C(=O)c1sccc1C")
"not fulfilled"

[ask] Answer whether Z score of `Cn1cc(NC(=O)c2cc3ccccc3o2)ccc1=O` is greater than or equal to -0.08.
[reply] fulfilled
